Molecular target: FAK (Homo sapiens)
Construct: homozygous knock-in of a HiBiT tag (Promega Corporation, Madison, WI) to the C-terminus of the FAK gene in its natural genomic locus; endogenous in cells; host or cells: JHH-4-FAK-HiBiT clone d01 (CRISPR-Cas9 knock-in at the endogenous locus)
Sequence (Q05397 whole entry): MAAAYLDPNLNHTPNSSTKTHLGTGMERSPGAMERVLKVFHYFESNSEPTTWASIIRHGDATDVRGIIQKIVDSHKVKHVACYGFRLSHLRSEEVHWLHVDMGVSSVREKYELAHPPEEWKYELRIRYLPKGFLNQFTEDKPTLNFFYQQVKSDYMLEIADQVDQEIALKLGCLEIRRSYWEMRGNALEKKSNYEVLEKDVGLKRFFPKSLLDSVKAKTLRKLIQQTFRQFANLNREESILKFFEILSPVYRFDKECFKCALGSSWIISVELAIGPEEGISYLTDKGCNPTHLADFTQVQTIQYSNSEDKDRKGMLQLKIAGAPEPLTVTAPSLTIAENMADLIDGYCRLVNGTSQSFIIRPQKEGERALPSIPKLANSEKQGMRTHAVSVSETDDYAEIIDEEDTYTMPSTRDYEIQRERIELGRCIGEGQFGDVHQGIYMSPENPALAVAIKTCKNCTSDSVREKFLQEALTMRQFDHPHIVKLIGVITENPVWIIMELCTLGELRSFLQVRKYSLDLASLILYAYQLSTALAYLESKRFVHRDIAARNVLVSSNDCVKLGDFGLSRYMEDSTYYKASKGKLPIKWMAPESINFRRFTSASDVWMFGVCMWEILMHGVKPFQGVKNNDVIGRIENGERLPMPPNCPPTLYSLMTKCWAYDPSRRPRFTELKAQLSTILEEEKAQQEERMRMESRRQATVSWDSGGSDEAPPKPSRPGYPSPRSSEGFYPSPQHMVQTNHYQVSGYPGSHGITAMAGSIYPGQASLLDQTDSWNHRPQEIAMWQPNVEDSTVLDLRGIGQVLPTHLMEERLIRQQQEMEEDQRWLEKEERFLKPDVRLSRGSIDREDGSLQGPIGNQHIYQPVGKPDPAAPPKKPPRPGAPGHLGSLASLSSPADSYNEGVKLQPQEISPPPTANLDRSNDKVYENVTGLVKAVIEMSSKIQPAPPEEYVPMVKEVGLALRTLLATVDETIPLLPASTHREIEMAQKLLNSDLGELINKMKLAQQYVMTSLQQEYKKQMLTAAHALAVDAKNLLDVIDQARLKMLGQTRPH
Assay: FAK-HiBiT Degradation Assay
Format: cell-based
Details: lower limit of the four parameter fit (value A); Ymax derived using DMSO control; JHH-4-FAK-HiBiT cells, two hours
// thresholds for FAK HiBiT Ymin classes: group 1: < 8; group 2: ≥ 8 and < 20; group 3: ≥ 20

Class for CC(C)Nc1cc(-c2ccc(C#N)cc2Cl)c2cnn(Cc3ccc4c(c3)CN(C3CCC(=O)NC3=O)C4=O)c2n1 (stereo not drawn) [Example 68] ?
group 2

Class for O=C1CCC(N2Cc3c(ccc(Cn4ncc5c(-c6ncc(C(F)(F)F)cc6Cl)cc(N6CC(F)C6)nc54)c3F)C2=O)C(=O)N1 (stereo not drawn) [Example 40] ?
group 1

Class for N#Cc1cnc(-c2cc(N3CC(F)C3)nc3c2cnn3Cc2ccc3c(c2)CN(C2CCC(=O)NC2=O)C3=O)c(Cl)c1 (stereo not drawn) [Example 73] ?
group 2

Class for CN(C)c1cc(-c2ncc(C#N)cc2Cl)c2ccn(Cc3ccc4c(c3)CN(C3CCC(=O)NC3=O)C4=O)c2n1 (stereo not drawn) [Example 13] ?
group 1

Class for O=C1CC[C@H](N2Cc3cc(Cn4ncc5c(-c6ncc(F)cc6F)cc(N6CC[C@H](O)C6)nc54)ccc3C2=O)C(=O)N1 [Example 123] ?
group 3

Class for O=C1CCC(N2Cc3cc(Cn4ncc5c(-c6nnccc6C(F)(F)F)cc(N6CC(F)C6)nc54)ccc3C2=O)C(=O)N1 (stereo not drawn) [Example 129] ?
group 3

Class for COc1cnc(-c2cc(N3CC(F)C3)nc3c2cnn3Cc2ccc3c(c2)CN(C2CCC(=O)NC2=O)C3=O)c(Cl)c1 (stereo not drawn) [Example 69] ?
group 2

Class for N#Cc1ccc(-c2c(F)c(N3CC(F)C3)nc3c2cnn3Cc2ccc3c(c2)CN(C2CCC(=O)NC2=O)C3=O)c(F)c1 (stereo not drawn) [Example 41] ?
group 2
